Where these numbers come from: PubChem BioAssay AID1996

Settings: buffer; pH 7.4; 200.0 µM
measurement-label: solubility kinetic

Report measured solubility kinetic; entry is O=C(O)CC(NS(=O)(=O)c1ccc2c(c1)OCCO2)c1ccccc1[N+](=O)[O-] (configuration not stated)
> 61.3 µg/mL

Report measured solubility kinetic; entry is COC(=O)c1c(NC(C)=O)sc(C(=O)Nc2ccccc2F)c1C
< 0.4 µg/mL

Report measured solubility kinetic; entry is O=C(COc1ccccc1O)NC1CCCC1
> 35.3 µg/mL

Report measured solubility kinetic; entry is Cn1nccc1NS(=O)(=O)c1ccc(NC(=O)C(F)(F)F)cc1
> 52.2 µg/mL

----------
Details: buffer; pH 7.4; 200.0 µM
We use 30 µg/mL as the dividing line for solubility kinetic: on or above the line is fulfilled, below is not fulfilled.

molecule	category-label
Fc1ccc(CNCCc2c[nH]c3ccccc23)cc1	fulfilled
CCc1noc(C)c1C(=O)Nc1nc2c(C)cc(C)cc2s1	not fulfilled
COc1ccc(OC)c(/C=C/c2ccc3cccc(O)c3n2)c1	not fulfilled
COc1ccc(OCC(O)CNC(=O)Nc2cc(C)cc(C)c2)cc1 (configuration not stated)	not fulfilled
O=C(NCCNC1CCC(c2ccccc2)CC1)c1ccc(F)cc1 (configuration not stated)	fulfilled

Record Cc1ncc([N+](=O)[O-])n1S(=O)(=O)c1cc(Cl)ccc1Cl ; criterion: solubility kinetic no lower than 30 µg/mL. Met?
fulfilled

Record CC1C(Br)C(=O)NC(=O)N1Cc1ccccc1 (configuration not stated) ; criterion: solubility kinetic no lower than 30 µg/mL. Met?
fulfilled

Record CC(C)c1ccccc1OCC(=O)N1CCCN(C)CC1 ; criterion: solubility kinetic no lower than 30 µg/mL. Met?
fulfilled

Record O=[N+]([O-])c1cccc(S(=O)(=O)N2CCN(c3ccccn3)CC2)c1 ; criterion: solubility kinetic no lower than 30 µg/mL. Met?
not fulfilled

Record N#CC(=C=[N-])c1nc2ccccc2nc1-[n+]1ccccc1 ; criterion: solubility kinetic no lower than 30 µg/mL. Met?
not fulfilled

Record Cc1ccc(NC(=O)CSc2nc3ccccc3c(=O)[nH]2)cc1[N+](=O)[O-] ; criterion: solubility kinetic no lower than 30 µg/mL. Met?
not fulfilled

Record CCSc1nc2ccccc2n1CC(=O)O ; criterion: solubility kinetic no lower than 30 µg/mL. Met?
fulfilled

Record O=C(OC1CCOC1=O)c1ccc(N2CCCC2)c([N+](=O)[O-])c1 (configuration not stated) ; criterion: solubility kinetic no lower than 30 µg/mL. Met?
fulfilled
